# inhibition values compiled below
Target Under Test: NAD-dependent protein deacetylase sirtuin-1 (Homo sapiens);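 also: recombinant GST-tagged human SIRT1 enzyme assay with KI177 substrate, fluorescence read 1 h after enzyme addition, inhibition expressed relative to control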
Sequence (whole entry): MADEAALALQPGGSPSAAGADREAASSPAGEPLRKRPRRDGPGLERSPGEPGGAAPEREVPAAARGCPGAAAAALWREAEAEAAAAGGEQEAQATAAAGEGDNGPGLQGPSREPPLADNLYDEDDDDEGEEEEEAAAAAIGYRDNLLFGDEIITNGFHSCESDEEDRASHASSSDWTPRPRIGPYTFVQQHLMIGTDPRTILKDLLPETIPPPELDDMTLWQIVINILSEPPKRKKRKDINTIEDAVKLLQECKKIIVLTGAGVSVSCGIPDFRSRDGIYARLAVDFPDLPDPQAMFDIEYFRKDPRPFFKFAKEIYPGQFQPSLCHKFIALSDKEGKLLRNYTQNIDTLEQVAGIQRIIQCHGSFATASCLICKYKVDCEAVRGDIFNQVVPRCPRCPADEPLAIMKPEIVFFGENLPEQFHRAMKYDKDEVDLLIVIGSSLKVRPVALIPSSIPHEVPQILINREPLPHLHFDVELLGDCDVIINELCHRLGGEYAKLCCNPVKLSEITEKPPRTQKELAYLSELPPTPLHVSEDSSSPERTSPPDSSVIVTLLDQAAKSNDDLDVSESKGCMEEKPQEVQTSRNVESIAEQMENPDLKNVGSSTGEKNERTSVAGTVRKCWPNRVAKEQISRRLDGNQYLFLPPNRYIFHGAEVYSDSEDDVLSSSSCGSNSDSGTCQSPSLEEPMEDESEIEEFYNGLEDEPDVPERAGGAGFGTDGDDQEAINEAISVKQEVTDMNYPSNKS
Test Conditions: at 50 µM
Description: Inhibition of human recombinant GST-tagged SIRT1 using KI177 as substrate at 50 uM preincubated for 5 mins followed by enzyme addition measured after 1 hr by fluorescence assay relative to control
Observation Type: inhibition (%)

Record Smiles: CC(=S)NCCCC[C@H](NC(=O)OCc1ccccc1)C(=O)NCCc1ccccc1
Unit: %
Numeric Result: 72

Record Smiles: CC(=S)NCCCC[C@H](NC(=O)[C@@H]1CCCN1)C(=O)Nc1ccccc1
Unit: %
Numeric Result: 86

Record Smiles: CC(=S)NCCCC[C@H](NC(=O)OCc1ccccc1)C(=O)NCc1ccccc1
Unit: %
Numeric Result: 91

Record Smiles: CC(=S)NCCCC[C@H](NC(=O)OCc1ccccc1)C(=O)Nc1cccnc1
Unit: %
Numeric Result: 84

Record Smiles: COc1ccc2[nH]cc(CCNC(=O)[C@H](CCCCNC(C)=S)NC(=O)OCc3ccccc3)c2c1
Unit: %
Numeric Result: 88

Record Smiles: CC(=S)NCCCC[C@H](NC(=O)OCc1ccccc1)C(=O)Nc1ccccc1
Unit: %
Numeric Result: 83

Record Smiles: CC(=S)NCCCC[C@H](NC(=O)[C@@H]1CCCN1C(=O)OC(C)(C)C)C(=O)Nc1ccccc1
Unit: %
Numeric Result: 80

Record Smiles: CC(=S)NCCCC[C@H](NC(=O)CN(C)C)C(=O)Nc1ccccc1
Unit: %
Numeric Result: 62

Record Smiles: CC(=S)NCCCC[C@H](NC(=O)OC(C)(C)C)C(=O)NCCc1cccnc1
Unit: %
Numeric Result: 41

Record Smiles: CC(=S)NCCCC[C@H](NC(=O)C[C@@H]1NC(=O)[C@H](Cc2ccccc2)NC1=O)C(=O)NCC(=O)c1ccccc1
Unit: %
Numeric Result: 96

Record Smiles: COc1ccc(C(=O)CNC(=O)[C@H](CCCCNC(C)=S)NC(=O)OCc2ccccc2)cc1
Unit: %
Numeric Result: 97

Record Smiles: CC(=S)NCCCC[C@H](NC(=O)[C@@H]1C[C@@H](O)CN1C(=O)OCc1ccccc1)C(=O)Nc1ccccc1
Unit: %
Numeric Result: 90

Record Smiles: CC(=S)NCCCC[C@H](NC(=O)CCCCCc1ccccc1)C(=O)NCC(=O)c1ccccc1
Unit: %
Numeric Result: 98

Record Smiles: CC(=S)NCCCC[C@H](NC(=O)CCc1ccccc1)C(=O)Nc1cccnc1
Unit: %
Numeric Result: 83

Record Smiles: CC(=S)NCCCC[C@H](NC(=O)OCc1ccccc1)C(=O)NCCc1c[nH]c2ccccc12
Unit: %
Numeric Result: 85

Record Smiles: CC(=S)NCCCC[C@H](NC(=O)CCc1cccnc1)C(=O)NCC(=O)c1ccccc1
Unit: %
Numeric Result: 95

Record Smiles: CC(=S)NCCCC[C@H](NC(=O)OCc1ccccc1)C(=O)NCCc1c[nH]c2ccc(OCc3ccccc3)cc12
Unit: %
Numeric Result: 87

Record Smiles: CC(=S)NCCCC[C@H](NC(=O)CCc1cccnc1)C(=O)Nc1ccccc1
Unit: %
Numeric Result: 82

Record Smiles: CC(=S)NCCCC[C@H](NC(=O)[C@@H]1C[C@@H](O)CN1C(=O)OCc1ccccc1)C(=O)NCC(=O)c1ccccc1
Unit: %
Numeric Result: 99
